Target: Platelet-activating factor acetylhydrolase IB subunit alpha2 (Homo sapiens) (UniProt P68402)
Sequence (P68402 whole entry, looked up): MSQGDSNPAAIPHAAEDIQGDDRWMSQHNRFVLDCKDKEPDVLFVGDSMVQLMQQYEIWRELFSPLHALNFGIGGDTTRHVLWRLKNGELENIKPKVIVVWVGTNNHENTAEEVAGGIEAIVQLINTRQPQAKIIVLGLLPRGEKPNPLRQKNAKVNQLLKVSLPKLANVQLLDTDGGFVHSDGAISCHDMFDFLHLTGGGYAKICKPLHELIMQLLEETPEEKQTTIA
Assay: inhibition of human PAFAH1B2 catalytic subunit – biochemical, fluorescence polarization, FP-rhodamine probe, triplicate, confirmation (AID 493034);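 also: 0% = enzyme with DMSO and 100% = wells lacking PAFAH1B2 protein; inhibitors lower polarization by leaving the probe unbound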
Conditions: recombinant PAFAH1B2, FP-rhodamine probe fluorescence polarization; at 3.39 µM
Out of some 2,400 compounds screened, about 2,200 (92%) were called active.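 The calls were made as follows: active = mean inhibition over triplicate runs exceeds the cutoff derived for the earlier primary screen (cut at about 25% in these data); inactive = the rest.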 The set was probably picked from earlier hits. Some of the results follow.
Respond only with the outcome that fits, drawn from 1 (active), -1 (inactive)

Please share the test call associated with "COc1ccc(/C=C2\SC(=O)N(CCCC(=O)Nc3cc(Cl)ccc3C(=O)O)C2=O)cc1" .
1

Would you mind telling me which call this test gave "O=C(CCN1C(=O)/C(=C/c2ccccc2)SC1=S)N[C@@H](CO)Cc1ccccc1" ?
1

What did this assay record as the result for "CCc1ccc([C@@H]2CC=C(C(=O)O)[C@H](c3ccc(C(C)(C)C)cc3)N2S(=O)(=O)c2ccc(C)cc2)cc1" ?
1

Please state the recorded outcome for this compound: "CC1CCN(S(=O)(=O)c2ccc(NC(=O)[C@@H]3CCCC[C@@H]3C(=O)O)cc2)CC1"
1

What did this assay record as the result for "CC1CCN(S(=O)(=O)c2ccc(NC(=O)CN3CCCCCC3)cc2)CC1" ?
-1

Assay outcome for "Cc1ccc([C@@H]2CC=C(C(=O)O)[C@H](c3ccc(C(C)(C)C)cc3)N2S(=O)(=O)c2ccc(C)cc2)cc1" : what was it?
1

Could you please tell me the result logged for "O=C(O)c1ccc(NS(=O)(=O)c2ccc(Cl)c(Cl)c2)cc1O" in this assay?
-1

Identify the outcome logged in this assay for the compound shown: "COc1ccccc1NC(=O)C(=O)NNS(=O)(=O)c1ccc2ccccc2c1"
-1

Please indicate how the test categorized "O=S(=O)(NC(=NCCc1ccc(Cl)cc1)c1ccccc1Cl)c1cccs1" .
1

State the result this test recorded for "CCOC(=O)C(CC(=O)O)=C(c1ccccc1)c1ccccc1" .
-1

// param item: OC(c1ccccc1)(c1ccc(F)cc1)C(c1ccccc1)N1CCOCC1 (stereo not given) ; yields the recorded call
-1

Could you please tell me the result logged for "O=C(CCN1C(=O)/C(=C/c2ccccc2Cl)SC1=S)NC1=NCCS1" in this assay?
-1

Hey, what did the test say about "O=C(CSc1nc(C2CC2)nc2ccccc12)Nc1ccc2c(c1)OCCO2" ?
-1

Name the outcome recorded for "O=C(O)c1ccn2c(C(=O)c3ccc(Cl)cc3)c(-c3ccccc3)cc2c1" in the assay.
1

Any idea what this test logged for "O=C(CCN1C(=O)/C(=C/c2ccccc2F)SC1=S)N[C@@H](CO)Cc1ccccc1" ?
1

For "O=C1C(=O)N2C(=C1C(=O)N1CCCCCC1)c1ccccc1CC21CCCC1" , which call appears in the assay record?
1

Could you check what this test reported for Cc1noc(C)c1COc1ccccc1C(=O)NC(C)c1ccc(Cl)cc1 (stereo not given) ?
-1

What is the recorded call for this compound in the test? CC(C)C(C(=O)Nc1nccs1)c1ccc(Cl)cc1 (stereo not given)
-1

Hi, sorry to bother you, what did the test record for CC1=C(C(=O)OCC(Br)(Br)Br)C(c2cccc([N+](=O)[O-])c2)NC(=O)N1CCCC(=O)O (stereo not given) ?
1

What call does the record list for "NC(=NCCc1ccc(Cl)cc1)NS(=O)(=O)c1ccc(F)cc1" ?
1

====

Biological target: Platelet-activating factor acetylhydrolase IB subunit alpha2 (Homo sapiens)
Test: inhibition of human PAFAH1B2 catalytic subunit – biochemical, fluorescence polarization, FP-rhodamine probe, triplicate, confirmation (AID 493034);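 also: 0% = enzyme with DMSO and 100% = wells lacking PAFAH1B2 protein; inhibitors lower polarization by leaving the probe unbound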
Conditions: recombinant PAFAH1B2, FP-rhodamine probe fluorescence polarization; at 3.39 µM
Out of some 2,400 compounds screened, about 2,200 (92%) were called active.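 How the source made its calls: active means mean inhibition over triplicate runs exceeds the cutoff derived for the earlier primary screen (cut at about 25% in these data); inactive means the rest.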 So high a share suggests a set chosen from earlier hits. This is one part of the list.
Log the outcome using a class from True for active, False for inactive

Returns: the outcome recorded for CC(Nc1ccc(Cl)cc1)c1cc(Cl)ccc1O (stereo not given) in this assay.
True

Would you mind telling me which call this test gave CC1CCC2C(C1)c1sc(=O)[nH]c1SC2(C)C (stereo not given) ?
True

Test call for this compound, please: "O=C(COc1ccc(Cl)cc1)NNC(=O)C(=O)N1CCCCC1"
False

Answer briefly: the call reported for Cc1ccc(N2C(=O)CC(Sc3nc4ccccc4o3)C2=O)cc1Cl (stereo not given) in this assay.
False

Test call for this compound, please: "CN(C(=O)CSc1nc(-c2ccc(C(C)(C)C)cc2)c(C#N)c(=O)[nH]1)C1CCCCC1"
False

Which outcome did this test record for the compound "O=c1c2c(nc3cc(-c4ccc(Cl)cc4)[nH]n13)CCS2" ?
False

Given O=C(O)CCCN1C(=O)C2C3CC(C2C1=O)C1C(c2ccccc2)c2sc(=O)[nH]c2SC31 (stereo not given) , state the outcome it received in this test.
True

Give the logged outcome of this assay for the following compound: "Cc1nn(-c2ccccc2)c(Cl)c1CN(C(=O)CCl)c1ccc(Cl)cc1"
False

Outcome logged for "COc1ccc(S(=O)(=O)Nc2ccc3c(c2)C(=O)N([C@H](C)CO)C[C@H](C)[C@@H](CN(C)S(=O)(=O)c2ccccc2)O3)cc1" in this assay:
False

Hello, I am checking results. What call was entered for "O=C(NNS(=O)(=O)c1cccc(Cl)c1)c1cc(-c2ccc(F)cc2)nc2ccccc12" ?
True

Name the outcome recorded for "CC(C)(C)Cc1nnc(NS(=O)(=O)c2ccc(F)cc2)s1" in the assay.
False

Hi, sorry to bother you, what did the test record for "CN(C(=O)Cc1c(C(=O)O)n(C)c2ccccc12)c1ccc(Cl)cc1" ?
True

Which outcome was entered for the compound "C=CC[C@H](CC(=O)N(CCO)Cc1ccccc1)C(=O)N[C@H](COC(=O)[C@@H](CC=C)Cc1ccc(F)cc1)Cc1ccccc1" in this test?
True

Short answer needed: outcome of this test for "O=C(NNC(=O)C1CCN(S(=O)(=O)c2ccc(Cl)cc2)CC1)c1ccccc1" ?
False

Answer briefly: the call reported for "O=C(O)CN1C(=O)/C(=C\c2cccc(OCc3ccc(Cl)cc3)c2)SC1=S" in this assay.
True

Hi team, can someone confirm the assay call for "COc1ccc(S(=O)(=O)Nc2ccc3c(c2)CC(=O)N([C@@H](C)CO)C[C@@H](C)[C@@H](CN(C)Cc2ccccc2)O3)cc1" ?
True

Assay outcome for O=C(O)CCN1C(=O)C2C3CC(C2C1=O)C1C(c2ccccc2)c2sc(=O)[nH]c2SC31 (stereo not given) : what was it?
True

Hi, sorry to bother you, what did the test record for "CCNC(=S)NNC(=O)c1cc(-c2cccc(C)c2)nc2ccccc12" ?
False

Short answer needed: outcome of this test for "N#Cc1c(-c2ccccc2)nc(SCc2ccc(Cl)cc2)[nH]c1=O" ?
True

Would you mind telling me which call this test gave "CCCCCCCCCCCC(=O)O" ?
False

====

Target: Platelet-activating factor acetylhydrolase IB subunit alpha2 (Homo sapiens)
Assay: inhibition of human PAFAH1B2 catalytic subunit – biochemical, fluorescence polarization, FP-rhodamine probe, triplicate, confirmation (AID 493034);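 also: 0% = enzyme with DMSO and 100% = wells lacking PAFAH1B2 protein; inhibitors lower polarization by leaving the probe unbound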
Details: recombinant PAFAH1B2, FP-rhodamine probe fluorescence polarization; at 3.39 µM; active compounds read high
The whole screen tested about 2,400 compounds, of which about 2,200 (92%) were called active. So high a share suggests a set chosen from earlier hits. This is one part of the list.
measure: inhibition (%)
# output: bare number, implied unit %

Supply measured inhibition of CC(C)C1Nc2ccc(S(N)(=O)=O)cc2C2C=CCC21 (stereo not given) in your reply.
23

Output inhibition of "Nc1ccc(CSc2ccccc2)cc1"
30.1

Identify measured inhibition associated with "Nc1nc(-c2cccc(F)c2)cs1"
36.3

Answer with the recorded inhibition of COC(=O)c1sccc1NC(=O)CC1C(=O)NCCN1C(=O)Nc1ccc(OCc2ccccc2)cc1 (stereo not given) only.
52.2

Dear colleague, please send me the reported inhibition for "CCN(c1ccccc1)S(=O)(=O)c1cc(C(=O)O)ccc1C" when you can.
45.1

Answer with the recorded inhibition for the compound listed here: "O=C(O)c1ccc(Cl)c(S(=O)(=O)N(Cc2ccccc2)c2ccc(F)cc2)c1"
22.7

Provide measured inhibition value, entry: "O=C1NC[C@@H](c2ccccc2)OC(=O)[C@@H](Cc2ccc(F)cc2)CC/C=C/C[C@H]1CC(=O)N(CCO)Cc1ccccc1"
57.9

Report inhibition, nothing else, for this compound: "CCN(CC)CCN(C(=O)c1ccc(S(=O)(=O)N(CC)c2ccccc2)cc1)c1nc2c(OC)ccc(OC)c2s1"
16.4

Could you please provide reported inhibition for "O=C1NC[C@@H](c2ccccc2)OC(=O)[C@H](Cc2ccc(F)cc2)CC/C=C/C[C@H]1CC(=O)N(CCO)Cc1ccccc1" ? Thanks!
52.6

Give reported inhibition value for CC(C)C1Nc2c(O)cc(Cl)c([N+](=O)[O-])c2C2C=CCC21 (stereo not given)
39.4

====

Biological target: Platelet-activating factor acetylhydrolase IB subunit alpha2 (Homo sapiens) (UniProt P68402)
Assay: inhibition of human PAFAH1B2 catalytic subunit – biochemical, fluorescence polarization, FP-rhodamine probe, triplicate, confirmation (AID 493034);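 also: 0% = enzyme with DMSO and 100% = wells lacking PAFAH1B2 protein; inhibitors lower polarization by leaving the probe unbound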
Settings: recombinant PAFAH1B2, FP-rhodamine probe fluorescence polarization; at 3.39 µM; active compounds read high
The campaign covered roughly 2,400 compounds. About 2,200 (92%) were called active. So high a share suggests a set chosen from earlier hits. This is one part of the list.
measure: inhibition

Retrieve inhibition measured for "O=C(O)C1=C[C@H](c2ccc(C(F)(F)F)cc2)C[C@H](OCc2ccc(CO)cc2)O1" and print it.
26% (active)

Please give measured inhibition of the following entry: "COc1ccc(NC(=O)Nc2cccc3c2O[C@H](CN(C)C(=O)Nc2ccc(C(F)(F)F)cc2)[C@@H](C)CN([C@H](C)CO)C3=O)cc1"
56.9% (active)

Return inhibition (reported value) for this compound: "CNC(=O)c1cc(C(=O)c2ccc(Cl)cc2)c(Br)[nH]1"
14% (inactive)

State its inhibition for this compound: "Cc1ccc(S(=O)(=O)N2[C@@H](c3ccc(Cl)cc3)C(C(=O)O)=C[C@H]2C(C)(C)C)cc1"
21% (inactive)

Note down inhibition recorded for "O=C(NNC(=O)C12CC3CC(CC(Cl)(C3)C1)C2)c1csc(N2CCOCC2)n1"
23% (inactive)

Given "CCc1cccc(Nc2cnn(C34C[C@@H]5C[C@@H](CC(CC(=O)O)(C5)C3)C4)c(=O)c2Cl)c1" , respond with its inhibition.
20.4% (inactive)

Note inhibition for the compound shown: "O=C(O)c1[nH]c2ccccc2c1C(c1cc(Cl)cc([N+](=O)[O-])c1O)c1c(C(=O)O)[nH]c2ccccc12"
43.8% (active)

Please look at this compound and report its inhibition: "O=C(O)COc1ccc(Br)cc1C(c1c(C(=O)O)[nH]c2ccccc12)c1c(C(=O)O)[nH]c2ccccc12"
46.4% (active)

Annotate the compound "COC(=O)c1sc(-c2ccc(Cl)cc2)cc1NC(=O)COCC(=O)O" with its measured inhibition.
11.5% (inactive)

Specify measured inhibition for "CCCn1cnc2cc(NCc3ccc(Br)cc3)ccc21" .
33.7% (active)

Report inhibition for Cc1ccc(SCC(=O)NC(C)c2ccccc2)cc1 (stereo not given)
21% (inactive)

Please give the documented inhibition of "COc1cc(Cl)cc(C(c2c(C(=O)O)[nH]c3ccccc23)c2c(C(=O)O)[nH]c3ccccc23)c1O"
71% (active)

Identify inhibition associated with the compound "CCOc1cc(Br)cc(C(c2c(C(=O)O)[nH]c3ccccc23)c2c(C(=O)O)[nH]c3ccccc23)c1O"
62.7% (active)

// fetch inhibition given entry "Cc1cc(-c2ccccc2)c2ccc(NC(=O)C(C)(C)C)nc2n1"
23.8% (inactive)

Respond only with inhibition recorded for "CCn1cnc2cc(NCc3ccc(Cl)cc3)ccc21"
20.5% (inactive)

For the compound "ONC(=Nc1ccc(Cl)cc1)c1ccccc1" , give its measured inhibition value.
23.1% (inactive)

Return value of inhibition for input "O=C(O)c1cc(NC(=S)NC(=O)C(c2ccccc2)c2ccccc2)ccc1Cl" , no commentary.
20.9% (inactive)

Dear colleague, please send me the reported inhibition for "Cc1ccc(S(=O)(=O)Nc2ccc(Cl)cc2C(=O)c2ccc(F)cc2)cc1" when you can.
27.2% (active)

Given "Cc1ccc(S(=O)(=O)N/N=C/c2cccn2-c2ccc(Cl)cc2)cc1" , respond with its inhibition.
45% (active)

Query inhibition for "Cn1cnc2cc(NCc3ccc(Cl)cc3)ccc21"
35.2% (active)
